- APPLIED CONDITIONS: minipig, in vivo, half-life calculated from the vitreous humor data
No end group written: not given here.
READOUT: half-life (days)

>>> print(df.to_string())
                    substance  meas_value
0  HHIYLGAVNYIY-NH2 [ONL1204]         112

* * *

- EXPERIMENT NOTES: in vivo
- APPLIED CONDITIONS: Dutch-belted, rabbit, 50 ug/eye, Average concentration of ONL1204 in retina
No end group written: not given here.
READOUT: tissue level at time at 672 h (ng/g)

In [3]: df
Out[3]:
                    substance                        readout  meas_value
0  HHIYLGAVNYIY-NH2 [ONL1204]  tissue level at time at 672 h          27

* * *

- EXPERIMENT NOTES: in vivo
- APPLIED CONDITIONS: Dutch-belted, rabbit, 50 ug/eye, Average concentration of ONL1204 in RPE/choroid
No end group written: not given here.
READOUT: tissue level at time at 672 h (ng/g)

>>> print(df.to_string())
                    substance  meas_value
0  HHIYLGAVNYIY-NH2 [ONL1204]        92.4

* * *

- EXPERIMENT NOTES: in vivo
- APPLIED CONDITIONS: Dutch-belted, rabbit, 100 ug/eye, Average concentration of ONL1204 in retina
No end group written: not given here.
READOUT: tissue level at time at 24 h (ng/g)

>>> print(df.to_string())
                    substance  meas_value
0  HHIYLGAVNYIY-NH2 [ONL1204]         183

* * *

- APPLIED CONDITIONS: minipig, in vivo, vitreous humor half-life
No end group written: not given here.
READOUT: half-life

>>> print(df.to_string())
                    substance    readout  meas_value
0  HHIYLGAVNYIY-NH2 [ONL1204]  half-life  > 100 days

* * *

- EXPERIMENT NOTES: in vivo
- APPLIED CONDITIONS: Göttingen, minipig, 300 ug/eye, Average concentration of ONL1204 in RPE/choroid
No end group written: not given here.
READOUT: tissue level at time at 144 h

In [3]: df
Out[3]:
                    substance  meas_value
0  HHIYLGAVNYIY-NH2 [ONL1204]    101 ng/g

* * *

- EXPERIMENT NOTES: in vivo
- APPLIED CONDITIONS: Göttingen, minipig, 200 ug/eye, Average concentration of ONL1204 in retina
No end group written: not given here.
READOUT: tissue level at time at 144 h (ng/g)

                    substance                        readout  unit_symbol  meas_value
0  HHIYLGAVNYIY-NH2 [ONL1204]  tissue level at time at 144 h         ng/g        17.8

* * *

- EXPERIMENT NOTES: in vivo
- APPLIED CONDITIONS: Göttingen, minipig, 200 ug/eye, Average concentration of ONL1204 in RPE/choroid
No end group written: not given here.
READOUT: tissue level at time at 144 h

In [3]: df
Out[3]:
                    substance                        readout  meas_value
0  HHIYLGAVNYIY-NH2 [ONL1204]  tissue level at time at 144 h    189 ng/g

* * *

- APPLIED CONDITIONS: rabbit, in vivo, 50 ug, calculated vitreous half-life
No end group written: not given here.
READOUT: half-life (days)

>>> df
                    substance  unit_symbol  meas_value
0  HHIYLGAVNYIY-NH2 [ONL1204]         days         116

* * *

- EXPERIMENT NOTES: in vivo
- APPLIED CONDITIONS: Dutch-belted, rabbit, 100 ug/eye, Average concentration of ONL1204 in RPE/choroid
No end group written: not given here.
READOUT: tissue level at time at 24 h (ng/g)

>>> print(df.to_string())
                    substance                       readout  unit_symbol  meas_value
0  HHIYLGAVNYIY-NH2 [ONL1204]  tissue level at time at 24 h         ng/g         174

* * *

- EXPERIMENT NOTES: in vivo
- APPLIED CONDITIONS: Dutch-belted, rabbit, 100 ug/eye, Average concentration of ONL1204 in retina
No end group written: not given here.
READOUT: tissue level at time at 1992 h (ng/g)

                    substance                         readout  meas_value
0  HHIYLGAVNYIY-NH2 [ONL1204]  tissue level at time at 1992 h        86.1

* * *

- EXPERIMENT NOTES: in vivo
- APPLIED CONDITIONS: Göttingen, minipig, 300 ug/eye, Average concentration of ONL1204 in RPE/choroid
No end group written: not given here.
READOUT: tissue level at time at 672 h (ng/g)

                    substance  unit_symbol  meas_value
0  HHIYLGAVNYIY-NH2 [ONL1204]         ng/g        82.4

* * *

- EXPERIMENT NOTES: in vivo
- APPLIED CONDITIONS: Göttingen, minipig, 200 ug/eye, Average concentration of ONL1204 in RPE/choroid
No end group written: not given here.
READOUT: tissue level at time at 672 h (ng/g)

In [3]: df
Out[3]:
                    substance  unit_symbol  meas_value
0  HHIYLGAVNYIY-NH2 [ONL1204]         ng/g        66.5

* * *

- APPLIED CONDITIONS: rabbit, in vivo, vitreous humor half-life
No end group written: not given here.
READOUT: half-life

                    substance  meas_value
0  HHIYLGAVNYIY-NH2 [ONL1204]  > 100 days

* * *

- EXPERIMENT NOTES: in vivo
- APPLIED CONDITIONS: Dutch-belted, rabbit, 50 ug/eye, Average concentration of ONL1204 in RPE/choroid
No end group written: not given here.
READOUT: tissue level at time at 1992 h (ng/g)

>>> df
                    substance  unit_symbol  meas_value
0  HHIYLGAVNYIY-NH2 [ONL1204]         ng/g         209

* * *

- EXPERIMENT NOTES: in vivo
- APPLIED CONDITIONS: Dutch-belted, rabbit, 50 ug/eye, Average concentration of ONL1204 in retina
No end group written: not given here.
READOUT: tissue level at time at 24 h (ng/g)

>>> df
                    substance                       readout  unit_symbol  meas_value
0  HHIYLGAVNYIY-NH2 [ONL1204]  tissue level at time at 24 h         ng/g        75.6

* * *

- APPLIED CONDITIONS: rabbit, in vivo, 10 ug, calculated vitreous half-life
No end group written: not given here.
READOUT: half-life (days)

                    substance  meas_value
0  HHIYLGAVNYIY-NH2 [ONL1204]         147

* * *

- EXPERIMENT NOTES: in vivo
- APPLIED CONDITIONS: Dutch-belted, rabbit, 100 ug/eye, Average concentration of ONL1204 in retina
No end group written: not given here.
READOUT: tissue level at time at 672 h (ng/g)

In [3]: df
Out[3]:
                    substance                        readout  unit_symbol  meas_value
0  HHIYLGAVNYIY-NH2 [ONL1204]  tissue level at time at 672 h         ng/g        42.3

* * *

- EXPERIMENT NOTES: in vivo
- APPLIED CONDITIONS: Dutch-belted, rabbit, 10 ug/eye, Average concentration of ONL1204 in RPE/choroid
No end group written: not given here.
READOUT: tissue level at time at 672 h (ng/g)

In [3]: df
Out[3]:
                    substance  meas_value
0  HHIYLGAVNYIY-NH2 [ONL1204]        10.5

* * *

- EXPERIMENT NOTES: in vivo
- APPLIED CONDITIONS: Dutch-belted, rabbit, 100 ug/eye, Average concentration of ONL1204 in RPE/choroid
No end group written: not given here.
READOUT: tissue level at time at 1344 h (ng/g)

In [3]: df
Out[3]:
                    substance  meas_value
0  HHIYLGAVNYIY-NH2 [ONL1204]        36.2
